Target: UniProt P35414
Experiment: [35S]GTPγS binding assay on membranes from CHO cells stably expressing human APJ receptor
Conditions: read-out: Activity hAPJ SPA EC50 IP
Reported pEC50 values follow for various molecules
pEC50 is a log-scale quantity: -log10 of the concentration expressed in molar.

Reference set (3 entries):
Molecule	Meas value
COC[C@@H]1COc2ccc(OC)nc2-c2nnc(NS(=O)(=O)[C@@H](C)[C@H](C)c3ncc(OC)cn3)n21 (stereo in doubt) [Example 3.0]	6.31
Cc1cnc([C@H](OC(C)C)[C@H](C)S(=O)(=O)Nc2nnc3n2-c2c(F)cccc2/C=C\C[C@@H]3C)nc1 (single isomer, unassigned) [Example 51.0]	8.07
Cc1cnc([C@H](OC(C)C)[C@H](C)S(=O)(=O)Nc2nnc3n2-c2c(F)cccc2/C=C\C[C@@H]3C)nc1 (single isomer, unassigned) [Example 50.0]	7.92

Identify measured pEC50 obtained with UniProt P35414 for C=C1COc2ncccc2-c2nnc(NS(=O)(=O)[C@@H](C)[C@@H](OC(C)C)c3ncc(Cl)cn3)n21 .
6.07

Write pEC50 of COC[C@@H]1COc2cc(F)c(F)cc2-c2nnc(NS(=O)(=O)[C@@H](C)[C@@H](OC(C)C)c3ncc(C)cn3)n21 (single isomer, unassigned) [Example 21.0] ; system used: UniProt P35414
5.47

Send back UniProt P35414 pEC50 of COCC1COc2ccc(OC)cc2-c2nnc(NS(=O)(=O)[C@@H](C)[C@@H](OC(C)C)c3ncc(C)cn3)n21 (single isomer, unassigned) [Example 153.0] only.
6.60

###

Measured EC50 accompanies every entry in the list below.
Target: human APJ receptor (Homo sapiens (Human), UniProt P35414)
Sequence (P35414 whole entry): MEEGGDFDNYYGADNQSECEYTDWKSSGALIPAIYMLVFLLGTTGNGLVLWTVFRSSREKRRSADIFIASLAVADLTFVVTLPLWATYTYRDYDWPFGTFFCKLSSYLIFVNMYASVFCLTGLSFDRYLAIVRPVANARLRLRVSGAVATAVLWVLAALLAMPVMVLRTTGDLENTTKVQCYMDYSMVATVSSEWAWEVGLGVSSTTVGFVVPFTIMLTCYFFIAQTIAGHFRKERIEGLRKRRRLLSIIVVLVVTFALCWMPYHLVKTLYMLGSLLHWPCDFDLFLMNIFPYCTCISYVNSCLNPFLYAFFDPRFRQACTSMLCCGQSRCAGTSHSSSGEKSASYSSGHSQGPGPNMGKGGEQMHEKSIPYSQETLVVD
Assay: [35S]GTPγS binding assay on membranes from CHO cells stably expressing human APJ receptor
Conditions: read-out: Activity hAPJ SPA EC50 IP
Description: [^35S]GTPγS Binding The human APJ receptor was cloned by polymerase chain reaction and the gene encoding the receptor was subcloned in pFLAG-CMV™-3 expression vector (Sigma, Saint Louis, Mo. USA) in-house at Amgen. […] The optimum experimental conditions for the concentrations of GDP, MgCl2, and NaCl in the assay buffer were initially determined. […] Incubation was at RT for 90 min and the microplate was read using a ViewLux™ ultra HTS Microplate Imager (PerkinElmer, Inc.). […]
Kindly provide the numeric value in nM only, without the unit symbol.

Illustrative cases are given below, each with its answer.
Compound	EC50 [nM]
COC[C@@H]1COc2ncccc2-c2nnc(NS(=O)(=O)[C@@H](C)[C@@H](OC(C)C)c3ncc(C)cn3)n21 (single isomer, unassigned) [Example 41.0]	44
COC[C@@H]1COc2ncccc2-c2nnc(NS(=O)(=O)[C@@H](C)[C@@H](OC(C)C)c3ncc(Cl)cn3)n21 (single isomer, unassigned) [Example 45.0]	160
COc1ccc2c(n1)-c1nnc(NS(=O)(=O)[C@@H](C)[C@@H](OC(C)C)c3ncc(C)cn3)n1[C@H](CO)CO2 (single isomer, unassigned) [Example 19.0]	990
CO[C@H](c1ncc(C)cn1)[C@H](C)S(=O)(=O)Nc1nnc2n1[C@H](COC(C)C)COc1ncccc1-2 (single isomer, unassigned) [Example 64.0]	640

# input for lookup
Tell me measured EC50 for COC[C@@H]1COc2ccc(F)cc2-c2nnc(NS(=O)(=O)[C@@H](C)[C@@H](OC(C)C)c3ncc(C)cn3)n21 (single isomer, unassigned) [Example 26.0] please.
460

Origin of values: patent US11149040B2
